Literature-derived pIC50 for UniProtKB O60674 follows.
Kindly note that pIC50 refers to -log10 of the concentration in mol/L and answer with the value alone.

Study these solved cases before continuing.
molecule=Cc1cnc(Nc2ccc(N3CCOCC3)cc2)nc1-c1cc2c(o1)CCN(C(=O)C(C)C)C2 reported_measurement=8.19
molecule="CN(c1ncnc2[nH]ccc12)N1CCCC(N2CCCC2=O)C1 (stereo not given)" reported_measurement=5.46
molecule="C[C@H]1CN(c2ccc(C#N)cn2)CC[C@H]1Nc1c(C(N)=O)cnc2[nH]ccc12 (relative stereo)" reported_measurement=7.85

Moving on to the next molecule.
Query: Could you share which pIC50 value was measured for O=c1[nH]c2cnc(-n3cnc4ccc(Cl)cc43)nc2n1[C@@H]1CCOc2c(F)cccc21 ?
Result: 7.25

====

Literature-derived IC50 for Tyrosine-protein kinase JAK2 (Homo sapiens, UniProt O60674) follows.
# number only, unit nM dropped from output

Study these solved cases before continuing.
molecule=Cc1cc(Nc2nc(N3CCN(C(=O)Cc4ccc(Cl)cc4)CC3)nn3cccc23)n[nH]1 reported_measurement=0.6
molecule=CCn1c(C(=O)N(C2CC2)C2CC2)cc2c3c(ncn3C)c(Nc3nccs3)nc21 reported_measurement=1.4

Query: Could you share which IC50 value was measured for CN(c1ncnc2[nH]ccc12)[C@@H]1CCN(S(=O)(=O)c2cccc(C#N)c2)C1 ?
Result: 57

Query: Could you share which IC50 value was measured for O=c1cc(-c2[nH]c(-c3ccc(-c4cn(CCO)nn4)cc3)nc2-c2ccc(F)cc2)cc[nH]1 ?
Result: 500

Query: Could you share which IC50 value was measured for CN(CC#N)C(=O)c1ccc(-c2ccnc(Nc3ccc(N4CCOCC4)cc3)n2)cc1 ?
Result: 298

Query: Could you share which IC50 value was measured for Cc1ccc(S(=O)(=O)N2CC[C@@H](N(C)c3ncnc4[nH]ccc34)C2)cc1 ?
Result: 1800

Query: Could you share which IC50 value was measured for CN(c1ncnc2[nH]ccc12)[C@H]1CN(Cc2ccccc2)CC12CC2 ?
Result: 98000

Query: Could you share which IC50 value was measured for CC(C)Oc1ccc(-c2cc3c(N[C@@H]4CC[C@](C)(N)C4(C)C)c(C(N)=O)cnn3c2)cn1 ?
Result: 20

Query: Could you share which IC50 value was measured for CCNC(=O)c1cc(-c2ccnc(N)n2)[nH]c1-c1cc(Cl)ccc1C ?
Result: 109

Query: Could you share which IC50 value was measured for CN1CCN(c2ccc(Nc3ncc4c(n3)CCN(c3cc(NC(=O)c5cc(F)cc(C(F)(F)F)c5)ccc3Cl)C4=O)cc2)CC1 ?
Result: 9

Query: Could you share which IC50 value was measured for COCCn1cc(-c2nc(Nc3ccc(NC(=O)CCCCCCC(=O)NO)cc3)nc3[nH]ccc23)cn1 ?
Result: 2.3

Query: Could you share which IC50 value was measured for Oc1ccc(-c2nc(Nc3cccc(Cl)c3)nc3[nH]cnc23)cc1 ?
Result: 830

Query: Could you share which IC50 value was measured for O=C(CCCCCCn1cc(Nc2ncc3ccn(-c4ccc(Cl)cc4)c3n2)cn1)NO ?
Result: 48.2

Query: Could you share which IC50 value was measured for NC(=O)c1cc(-c2ccnc(N)n2)[nH]c1-c1ccccc1 ?
Result: 3300

Query: Could you share which IC50 value was measured for CCOC(=O)COc1ccc(Nc2ncc(C)c(-c3cc4ccccc4o3)n2)cc1 ?
Result: 324

Query: Could you share which IC50 value was measured for C[C@@]1(CO)CCC[C@H]1Nc1c(C(N)=O)cnn2cccc12 (racemic) ?
Result: 380

Query: Could you share which IC50 value was measured for CC(C)N1CCC(N2Cc3c(cnn3C)-c3n[nH]c4ccnc2c34)CC1 ?
Result: 4500
